systemTested: UniProt:O39930
Sequence (O39930 whole entry): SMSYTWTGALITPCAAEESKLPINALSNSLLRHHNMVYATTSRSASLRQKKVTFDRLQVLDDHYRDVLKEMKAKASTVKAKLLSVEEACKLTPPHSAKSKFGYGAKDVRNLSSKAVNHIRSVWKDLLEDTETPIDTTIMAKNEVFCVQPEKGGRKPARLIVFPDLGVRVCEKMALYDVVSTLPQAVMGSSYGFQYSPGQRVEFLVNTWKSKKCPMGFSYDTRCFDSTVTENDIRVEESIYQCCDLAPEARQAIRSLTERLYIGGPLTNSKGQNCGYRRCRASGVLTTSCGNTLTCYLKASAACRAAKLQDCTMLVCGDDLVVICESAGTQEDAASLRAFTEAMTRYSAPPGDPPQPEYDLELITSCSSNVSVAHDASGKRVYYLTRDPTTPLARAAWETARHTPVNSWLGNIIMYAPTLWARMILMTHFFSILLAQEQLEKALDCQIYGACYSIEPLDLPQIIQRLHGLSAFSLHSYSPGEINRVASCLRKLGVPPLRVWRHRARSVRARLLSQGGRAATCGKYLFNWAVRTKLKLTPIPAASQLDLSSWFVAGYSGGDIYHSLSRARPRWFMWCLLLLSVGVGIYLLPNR
runDescription: Inhibitory activity against Hepatitis C virus RNA dependent RNA polymerase nonstructural protein 5B

compound | IC50
O=C(O)C(=O)CC(=O)c1cccc(COc2ccccc2)c1 | 30 µM
N#Cc1ccccc1COc1cccc(/C(O)=C/C(=O)C(=O)O)c1 | 0.23 µM
O=C(O)C(=O)CC(=O)c1cccc(NC(=O)c2ccccc2)c1 | 11 µM
CC(C)(C)c1ccc(C(=O)CC(=O)C(=O)O)cc1 | > 50 µM
O=C(CC(O)C(=O)O)c1ccccc1 (configuration not stated) | > 50 µM
CC(C)(C)C(=O)CC(=O)C(=O)O | > 50 µM
O=C(O)C(=O)CC(=O)C(c1ccccc1)c1ccccc1 | > 50 µM
N#CCCCOc1ccc(OCc2ccccc2C#N)cc1/C(O)=C/C(=O)C(=O)O | > 50 µM
O=C(O)C(=O)CC(=O)c1ccco1 | > 50 µM
O=C(O)C(=O)CC(=O)c1ccncc1 | > 50 µM
O=C(O)C(=O)CC(=O)c1ccccc1 | 5.7 µM
CC(=O)CC(=O)C(=O)O | > 50 µM
COC(=O)C(=O)CC(=O)c1ccccc1 | > 50 µM
O=C(O)C(=O)CCc1ccccc1 | > 50 µM
O=C(O)C(=O)CC(=O)c1cccnc1 | > 50 µM
CCCCCOc1ccccc1C(=O)CC(=O)C(=O)O | 25 µM
O=C(O)C(=O)CC(=O)c1cccc(OCc2ccccc2)c1 | 8 µM
